- PROCEDURE SUMMARY: folding stability dG unfold from trypsin proteolysis; higher = more stable
METRIC NAME: folding stability dG unfold

ITEM SEQUENCE: SLIEALRAALEAGADEVTLRIVMPEEEAEELEKALEDLGFEIVSRERVEVDGRRYLVMEIRLRAPPPEEPSA [r9_498_TrROS_Hall]
ASSAY VALUE: 3.92 kcal/mol

ITEM SEQUENCE: SATREIELPGKKITIHHNPGNNMFRITIYDPKPGKPVEIPIPANNPGMTMENIIDQIREAAKKGRPVRISAG [r14_157_TrROS]
ASSAY VALUE: 0.85 kcal/mol

ITEM SEQUENCE: SAGGSASAEELAAELARRLAEELGLEVTKVEITEVTPDRVVVRVTVTVTLPNGEKVTRELTLVLEPSAGGSA [r15_276_TrROS_Hall]
ASSAY VALUE: 2.16 kcal/mol

ITEM SEQUENCE: SAGGSAGGSMLPADTKVIKITVESTLPDGSTTTHTVTVPSSVPLEAVKEQLPPGATITEVVLASAGGSAGGS [r12_597_JUSTAS]
ASSAY VALUE: 1.44 kcal/mol

ITEM SEQUENCE: SAGGSAGGSAGGSRMRLEITVRDENGLLVRLEVEFEEKDGELEMKVRAEVFPLPEEEEESAGGSAGGSAGGS [r4_168_TrROS_Hall]
ASSAY VALUE: 0.939 kcal/mol

ITEM SEQUENCE: SAGGSAGGSMDLKDIKILEAYDPGGPVVVTFLNEGKPYTVTIPPENAQILLDLLKEGNIEIKPSAGGSAGGS [r12_604_TrMRF]
ASSAY VALUE: 0.773 kcal/mol

ITEM SEQUENCE: SAGGSAGGMVIKIITNAPSLEEAEEIAKRVAAELRERFGGPDVEIVLDVEVIPLPPVPTEDGKPSAGGSAGG [r6_182_TrMRF]
ASSAY VALUE: 1.38 kcal/mol

ITEM SEQUENCE: SAGGIKEVKFDPKTNTLTVYLPEVGATITYNPTAGKLEIYSKDGKPKTIDVPTPSEMKKAILKAYKELKSAG [r5_467_TrMRF]
ASSAY VALUE: 1.82 kcal/mol

ITEM SEQUENCE: SAGGSAGGGAAPRTRVIEVLFPVPPDVTVEEIAERLRALYPDAVLVAEAERLPDGYVRVVVTLRSAGGSAGG [r6_566_TrMRF]
ASSAY VALUE: 2.49 kcal/mol

ITEM SEQUENCE: SAGGSAGGSAGGMTVERREVFPLGESLVITETREVLDPSSDVPVTVETRVEVLPPEVPPSAGGSAGGSAGGS [r10_599_JUSTAS]
ASSAY VALUE: -1.32 kcal/mol

ITEM SEQUENCE: SAGGSAGGSVKVTTEPLPNGERLVTVTAYLKSKPYPVLMPYPASATPEQVKETALRIEKELEKSAGGSAGGS [r12_69_TrMRF]
ASSAY VALUE: -0.999 kcal/mol

ITEM SEQUENCE: SAGGSARALLEELEVLSEEDRGDFTVVTVKGPAAEYPAEEVRAALEALGIAVEYDPATGEVTVYVASAGGSA [r15_599_JUSTAS]
ASSAY VALUE: -0.0454 kcal/mol

ITEM SEQUENCE: SAGMKPLSDPEAQELAKEVAEKGYLVYTLKYPDGTVITVVSKSEEEVEALLEKSPYPIKEIVIIPPEKPSAG [r5_481_JUSTAS]
ASSAY VALUE: 1.16 kcal/mol

ITEM SEQUENCE: SAGGSAGGSMRIKFEFKIGDKWVEEEIPADLSQLPLSEIKKKHPKAEYKIEIEDEEGNWTPLLSAGGSAGGS [r12_540_JUSTAS]
ASSAY VALUE: 0.262 kcal/mol

* * *

- PROCEDURE SUMMARY: folding stability dG unfold (combined trypsin and chymotrypsin); higher = more stable
folding stability dG unfold below 3 kcal/mol gives Not fulfilled; folding stability dG unfold at or above it gives Fulfilled.

ITEM SEQUENCE: SAGGSAGGMIPVKTTETTTLPDGSTVVTESLTIIDPTSNTSTTTTLKTTIINTSTGTTIPPSSLSAGGSAGG [r6_866_JUSTAS]
ASSIGNED LABEL: Not fulfilled
//
ITEM SEQUENCE: SAGGSAGGSGSLLEKLGLEPNSTVTVTVTPEEAEKIRAEPRVKEIKREPTPEDTYLYTITVVASAGGSAGGS [r12_750_JUSTAS]
ASSIGNED LABEL: Not fulfilled
//
ITEM SEQUENCE: SAGGSAGGSAGIITIWFPPDEEFRDFIENLPGPIEDVNIEPRNPGWIKVTLTMRMPPDQVSAGGSAGGSAGG [r11_143_TrROS]
ASSIGNED LABEL: Not fulfilled
//
ITEM SEQUENCE: SAGKPKIIEEKTITVPPGATLTIEFPPEVKRIEIINLDTGKTETIEIKPGEKLTFTFPPGSTVRVRVLSAGG [r19_118_TrROS_Hall]
ASSIGNED LABEL: Fulfilled
//
ITEM SEQUENCE: SAGGSAGGSAGGATAEELAAALKELEAKLKALLEKPEEVEVEVEVKAPEVEEVDGKLVLLSAGGSAGGSAGG [r7_44_TrROS_Hall]
ASSIGNED LABEL: Not fulfilled
//
ITEM SEQUENCE: SAGGSAGGSAAEVEVETLELEIDGVKITVTRVRNADGELLYFARIEVRPAPPPPPVSLEDLSAGGSAGGSAG [r3_68_TrROS_Hall]
ASSIGNED LABEL: Fulfilled
//
ITEM SEQUENCE: SAGGKKIVIFIGPPEQMDRMQEQHPDEPVIPIPRDALQDPEPAKNLIKELQEKGKDVEIYLFKDFKPSAGGS [r8_376_TrROS]
ASSIGNED LABEL: Not fulfilled
//
ITEM SEQUENCE: SAGGSAGGSAGKPYRIKIEFYPPGNGQPMEHTFPVKSPEEAVNNLEKSFPNYQIRVDVVESAGGSAGGSAGG [r17_428_TrROS]
ASSIGNED LABEL: Not fulfilled
//
ITEM SEQUENCE: SAGGGSVSVTPVKEIPGPGTTTLYRETHPDDRTVLITYNPATGTVTVTTYKGNTKTSTTTYNTPESLSAGGS [r16_457_JUSTAS]
ASSIGNED LABEL: Not fulfilled
//
ITEM SEQUENCE: SAGGSAGGMTFTIPPGKPVTIRVYNRNGELIEEVTVTGAGARIHVSEIPGTGELKITRIDEIPPSAGGSAGG [r6_523_TrMRF]
ASSIGNED LABEL: Not fulfilled
//
ITEM SEQUENCE: SAGGSEAAPGEKVTITTVTSSVLKTYETPTGTLETESSTSVTTTTVTVPAAAAAAAGVRYSPDPLLSAGGSA [r2_495_JUSTAS]
ASSIGNED LABEL: Not fulfilled
//
ITEM SEQUENCE: SAGGMPPEELEAASLEERIARVRAAGLETATVRRPDGSTLTIDLGEEGPVTITTTTPPGETTTATLPSAGGS [r8_51_JUSTAS]
ASSIGNED LABEL: Not fulfilled
//
ITEM SEQUENCE: SAGPTVRIRFAGEEEIEVEVGEELEIRLPDGSVVRIRVKPDGTVTVTRPDGSEVELEDVDEVEIEVFPASAG [r5_869_TrROS_Hall]
ASSIGNED LABEL: Fulfilled
//
ITEM SEQUENCE: IKIRFPDGHEITEIDDLSFSGNGYIEINVKVRNPENPQTQPMPIYIPVPPVPPPPVKIERDPGNGKWKYEDS [r1_411_TrROS]
ASSIGNED LABEL: Not fulfilled
//
ITEM SEQUENCE: SAGGSAGGGRYLVLIEFENGFPLAYVFPSPEDVVEHTRLLEERLGYPIKRIEVYKIDPNGKAYASAGGSAGG [r6_162_TrMRF]
ASSIGNED LABEL: Not fulfilled
//
ITEM SEQUENCE: SAGGSAGGSAGEAASSLKLPPVTLTTPPVPVELPPGLTVESVEPVRTPSGETILVVNLVRSAGGSAGGSAGG [r11_388_JUSTAS]
ASSIGNED LABEL: Not fulfilled
//
ITEM SEQUENCE: SAGGSAGGSDPTYVEVRTLAGPAGPTRVLIRPSSGEWLEAEFPVDRPVVFFVPADVEVEVLPDSAGGSAGGS [r12_517_TrMRF]
ASSIGNED LABEL: Not fulfilled
//
ITEM SEQUENCE: SKVDIDVERDPGNGHYEYTVRNPNNGYDIKVRIADMDPEHGPIQVEIEPLDDGKKVHYPMPWDDIKDLIKSA [r9_1221_TrROS]
ASSIGNED LABEL: Not fulfilled
//
ITEM SEQUENCE: SAGGSAAKPGETVRVVVTVRVPPGATAEELKAALEALLGPDAEVTVEVFETPDTVVVVVEVRLPPASAGGSA [r15_749_TrROS_Hall]
ASSIGNED LABEL: Not fulfilled
//
ITEM SEQUENCE: SAGGSAGGSSQRIKIEDIEPPPNGQWRVRIKMPNGKEREVTMPPDKLEIELPPNITDVSLWPVSAGGSAGGS [r20_194_TrROS]
ASSIGNED LABEL: Fulfilled
//
ITEM SEQUENCE: SAGGSAGGSMVKVEVTTTYDPSSNKTTVTTTTTLTEGGGTVLGTKTTTTTTTISPTTPVTSVTSAGGSAGGS [r12_254_JUSTAS]
ASSIGNED LABEL: Not fulfilled
//
ITEM SEQUENCE: ADFRVTEESPEGVVTQTTTVALPDGTSRTLTYSYSKDASLTSVTVSYTPDSVTTTTTPVTPVPPGSPELAGS [r1_53_JUSTAS]
ASSIGNED LABEL: Not fulfilled
//
ITEM SEQUENCE: MTIVIDTPVPPEEAEALLRELAEELGYSPELMEVEERVFSEGEDGRPYVTLTVRLPGLGVTITLRLPPDAAS [r1_21_JUSTAS]
ASSIGNED LABEL: Fulfilled
//
ITEM SEQUENCE: SAGGSAGGSAMLTLRFELPDGSERELRLPGVTPEEAAALAAELARREGVARVEVYPPGVERSAGGSAGGSAG [r3_160_JUSTAS]
ASSIGNED LABEL: Not fulfilled
//
ITEM SEQUENCE: MTEEEVRAEAEARARALAEERGVEITAVDIDGEVEQVVETTTRPTPDGRPVTETTSKKIKTKVRATLRPPRS [r1_91_JUSTAS]
ASSIGNED LABEL: Not fulfilled
